# experimental_target: T1, Human CD98 ECD with C-terminal His-tag (human, UniProt P08195 105-529)
# T1 construct: also called huCD98 ECD; recombinant human CD98 extracellular domain
# T1 sequence: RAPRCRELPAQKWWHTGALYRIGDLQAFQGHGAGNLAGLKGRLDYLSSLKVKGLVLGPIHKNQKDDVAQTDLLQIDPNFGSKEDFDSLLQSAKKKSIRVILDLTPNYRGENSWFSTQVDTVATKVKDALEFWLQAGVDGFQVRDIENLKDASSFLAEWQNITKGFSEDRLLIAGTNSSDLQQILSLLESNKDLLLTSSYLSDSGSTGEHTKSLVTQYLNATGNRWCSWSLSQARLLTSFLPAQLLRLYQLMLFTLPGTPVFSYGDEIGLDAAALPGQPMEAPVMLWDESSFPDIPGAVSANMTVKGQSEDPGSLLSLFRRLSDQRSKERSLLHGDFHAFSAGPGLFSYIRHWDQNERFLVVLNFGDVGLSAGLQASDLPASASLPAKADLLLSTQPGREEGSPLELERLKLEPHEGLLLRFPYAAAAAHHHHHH
# measurement_protocol: SPR Biacore, anti-Fc capture of mAb, CD98 ECD analyte
measured_property: koff (s⁻¹)
Number in s⁻¹, nothing else.

Give the reported koff for this binder. Recombinant anti-CD98 chimeric antibody chAb14 (antibody, human IgG1, V domains shown) VH: EVKLQQSGDELVRPGASVKISCKASGYTFTSYSMHWVKERPGQGLEWIGAIFPIIGTTEYNQKFKGKATLTADKSSNTANMELSRLTSEDSAVYYCARVYLSYFDYWGQGVMVTVSS VL: DIQMTQSPSFLSASVGDRVTINCKASQNINKYLDWYQRKHGEAPKLLIYNTNNLQTGIPSRFSGSGSGTDYTLTISSLQPEDVATYFCLQHSSRYTFGAGTKLELK 8.4e-05

Give the reported koff for this binder. Recombinant anti-CD98 chimeric antibody chAb7 (antibody, human IgG1, V domains shown) VH: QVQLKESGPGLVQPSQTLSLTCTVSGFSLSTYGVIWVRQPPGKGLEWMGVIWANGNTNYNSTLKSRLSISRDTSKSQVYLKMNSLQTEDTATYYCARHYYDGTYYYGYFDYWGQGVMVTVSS VL: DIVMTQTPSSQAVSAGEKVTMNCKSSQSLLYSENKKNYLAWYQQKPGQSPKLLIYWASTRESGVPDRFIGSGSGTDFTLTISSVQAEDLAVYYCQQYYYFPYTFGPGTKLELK 6.2e-05
